study.system: SxC^− transporter (system xC^− cystine-glutamate antiporter) (Rattus norvegicus, UniProt A0A8I6AB70)
Construct: endogenous in cells
Sequence (A0A8I6AB70 1-502): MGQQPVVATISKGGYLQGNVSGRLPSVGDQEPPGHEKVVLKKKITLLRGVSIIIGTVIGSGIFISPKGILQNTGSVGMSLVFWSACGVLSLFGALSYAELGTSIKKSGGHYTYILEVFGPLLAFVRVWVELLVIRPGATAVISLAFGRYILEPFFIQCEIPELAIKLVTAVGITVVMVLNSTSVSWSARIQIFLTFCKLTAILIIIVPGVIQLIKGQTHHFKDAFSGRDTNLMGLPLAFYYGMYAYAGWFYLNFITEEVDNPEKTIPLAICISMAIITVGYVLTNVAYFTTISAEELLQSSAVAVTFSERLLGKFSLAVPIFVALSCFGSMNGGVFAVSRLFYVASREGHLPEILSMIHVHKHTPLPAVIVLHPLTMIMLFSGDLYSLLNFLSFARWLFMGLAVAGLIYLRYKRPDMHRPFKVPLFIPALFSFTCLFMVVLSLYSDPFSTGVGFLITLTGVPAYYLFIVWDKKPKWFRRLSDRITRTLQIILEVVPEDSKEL
Sequence (Q794F9 whole entry partner): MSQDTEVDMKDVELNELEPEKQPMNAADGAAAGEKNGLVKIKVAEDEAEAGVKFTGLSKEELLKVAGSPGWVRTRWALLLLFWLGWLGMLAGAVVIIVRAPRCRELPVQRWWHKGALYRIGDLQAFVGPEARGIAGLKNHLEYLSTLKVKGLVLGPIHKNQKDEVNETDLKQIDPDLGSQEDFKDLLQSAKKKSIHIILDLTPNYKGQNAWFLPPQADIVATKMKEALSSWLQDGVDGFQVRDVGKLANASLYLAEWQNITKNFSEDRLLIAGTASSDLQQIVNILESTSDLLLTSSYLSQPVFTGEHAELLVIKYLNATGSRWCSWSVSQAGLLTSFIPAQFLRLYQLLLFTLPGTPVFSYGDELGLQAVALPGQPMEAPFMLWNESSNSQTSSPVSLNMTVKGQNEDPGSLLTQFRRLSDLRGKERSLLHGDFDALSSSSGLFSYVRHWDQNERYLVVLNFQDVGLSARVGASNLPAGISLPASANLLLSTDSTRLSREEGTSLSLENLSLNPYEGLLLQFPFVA
test.details: Microglial glutamate release assay (LPS-activated primary microglia)
Type: cell-based
measurement.context: rat primary microglia, LPS 100 ng/ml, 18 h
parameter.measured: Inhibition of SxC^− / microglial Glu release (in words)

cpd.smiles: O=C(N[C@@H](Cc1cc(Br)c(O)c(Br)c1)C(=O)O)c1ccc(-c2ccc(-c3ccccc3)cc2)cc1
value.observed: quite effective
--
cpd.smiles: O=C(N[C@@H](Cc1cc(Br)c(O)c(Br)c1)C(=O)O)c1ccc(-c2ccccc2)cc1
value.observed: quite effective

Source listed as paper PMC10702053.
